- Tested on: Erythrocyte
- PROTOCOL DETAILS: Hemolytic activity against human RBC assessed as concentration required to cause 10% hemolysis
- Type: toxicity, cell-based
Starred links: 1 amine or outer side, 2 acyl side, 3 side chain; linkers in the order of their positions; H or OH if unused. Positions of bridges follow the written chain, without caps; N, C: chain ends. Non-standard residues stand in square brackets, D forms with d. Residues, ends and D or L forms follow the SMILES beside them. X1 = O=C([C@H](CCCCNCC=[*:3])N[*:1])[*:2]

COMPOUND | UNITS OF MEASURE | MHC
CC[C@H](C)[C@H](NC(=O)[C@H](CCCCN)NC(=O)[C@@H]1CCCN1C(=O)[C@@H](NC(=O)[C@H](CC(C)C)NC(=O)[C@H](CCCCN)NC(=O)[C@H](CC(C)C)NC(=O)[C@@H](NC(=O)[C@H](CO)NC(=O)CNC(=O)[C@H](Cc1ccccc1)NC(=O)[C@@H](N)Cc1ccccc1)C(C)C)[C@@H](C)CC)C(=O)N[C@@H](CC(C)C)C(N)=O (H-FFGSVLKLIPKIL-NH2) | µg/mL | 64
CC(C)C[C@H](NC(=O)[C@H](C)NC(=O)[C@H](CCCCN)NC(=O)[C@H](C)NC(=O)[C@H](C)NC(=O)CNC(=O)[C@H](CCCCN)NC(=O)[C@H](CC(C)C)NC(=O)[C@H](CC(C)C)NC(=O)[C@H](CC(=O)O)NC(=O)[C@H](CCCCN)NC(=O)[C@H](Cc1ccccc1)NC(=O)CN)C(=O)N[C@H](C(=O)N[C@@H](CCCCN)C(=O)N[C@H](C(=O)N[C@H](C(=O)N[C@@H](CC(C)C)C(=O)N[C@@H](Cc1ccccc1)C(N)=O)C(C)C)[C@@H](C)O)C(C)C [Ascaphin-8] (H-GFKDLLKGAAKALVKTVLF-NH2) | µg/mL | 32
CC[C@H](C)[C@H](NC(=O)[C@@H]1CCCCNC/C=C/CNCCCC[C@H](NC(=O)[C@H](CC(C)C)NC(=O)[C@@H](NC(=O)[C@H](CO)NC(=O)CNC(=O)[C@H](Cc2ccccc2)NC(=O)[C@@H](N)Cc2ccccc2)C(C)C)C(=O)N[C@@H](CC(C)C)C(=O)N[C@@H]([C@@H](C)CC)C(=O)N2CCC[C@H]2C(=O)N1)C(=O)N[C@@H](CC(C)C)C(N)=O (H-FFGSVL[X1]LIP[X1]IL-NH2; staple (E) 7-11) | µg/mL | 32

====

MIC listing for selected compounds.
- System: Pseudomonas aeruginosa
- PROTOCOL DETAILS: Antibacterial activity against Pseudomonas aeruginosa BNCC 125486 assessed as inhibition of bacterial growth incubated for 16 hrs by broth microdilution method
- Format: functional
Starred links: 1 amine or outer side, 2 acyl side, 3 side chain; linkers in the order of their positions; H or OH if unused. Positions of bridges follow the written chain, without caps; N, C: chain ends. Non-standard residues stand in square brackets, D forms with d. Residues, ends and D or L forms follow the SMILES beside them. X1 = O=C([C@H](CCCCNCC=[*:3])N[*:1])[*:2]
ENDPOINT NAME: MIC (µg/mL)

COMPOUND | READOUT RELATION | VALUE REPORTED
CC[C@H](C)[C@H](NC(=O)[C@H](CCCCN)NC(=O)[C@@H]1CCCN1C(=O)[C@@H](NC(=O)[C@H](CC(C)C)NC(=O)[C@H](CCCCN)NC(=O)[C@H](CC(C)C)NC(=O)[C@@H](NC(=O)[C@H](CO)NC(=O)CNC(=O)[C@H](Cc1ccccc1)NC(=O)[C@@H](N)Cc1ccccc1)C(C)C)[C@@H](C)CC)C(=O)N[C@@H](CC(C)C)C(N)=O (H-FFGSVLKLIPKIL-NH2) | > | 128
CC(C)[C@H](N)C(=O)N[C@H]1CCCCNC/C=C/CNCCCC[C@@H](C(=O)N[C@@H](Cc2ccccc2)C(=O)N[C@@H](Cc2ccccc2)C(=O)N[C@@H](CCCNC(=N)N)C(=O)N[C@@H](CCCCN)C(=O)N[C@@H](Cc2ccccc2)C(=O)N[C@@H](CCCCN)C(=O)N[C@@H](CCCCN)C(=O)N[C@@H](Cc2ccccc2)C(=O)N[C@H](C(N)=O)C(C)C)NC(=O)[C@H](CCCCN)NC(=O)[C@H](Cc2ccccc2)NC(=O)[C@H](CCCNC(=N)N)NC1=O (H-V[X1]RFK[X1]FFRKFKKFV-NH2; staple (E) 2-6) | = | 8
CC(C)[C@H](N)C(=O)N[C@H]1CCCCNCc2ccccc2CNCCCC[C@@H](C(=O)N[C@@H](Cc2ccccc2)C(=O)N[C@@H](Cc2ccccc2)C(=O)N[C@@H](CCCNC(=N)N)C(=O)N[C@@H](CCCCN)C(=O)N[C@@H](Cc2ccccc2)C(=O)N[C@@H](CCCCN)C(=O)N[C@@H](CCCCN)C(=O)N[C@@H](Cc2ccccc2)C(=O)N[C@H](C(N)=O)C(C)C)NC(=O)[C@H](CCCCN)NC(=O)[C@H](Cc2ccccc2)NC(=O)[C@H](CCCNC(=N)N)NC1=O | = | 16
CC(C)[C@H](N)C(=O)N[C@@H](CCCCN)C(=O)N[C@@H](CCCNC(=N)N)C(=O)N[C@@H](Cc1ccccc1)C(=O)N[C@@H](CCCCN)C(=O)N[C@H]1CCCCNCC#CCNCCCC[C@@H](C(=O)N[C@@H](Cc2ccccc2)C(=O)N[C@@H](CCCCN)C(=O)N[C@@H](CCCCN)C(=O)N[C@@H](Cc2ccccc2)C(=O)N[C@H](C(N)=O)C(C)C)NC(=O)[C@H](CCCNC(=N)N)NC(=O)[C@H](Cc2ccccc2)NC(=O)[C@H](Cc2ccccc2)NC1=O | = | 16

====

- Test system: HEK-293T
- PROTOCOL DETAILS: Cytotoxicity against human HEK293T cells assessed as cell survival rate at 256 ug/ml incubated for 24 hrs by MTT assay
- Type: toxicity, cell-based
- TEST PARAMETERS: dose 256 µg/ml
Starred links: 1 amine or outer side, 2 acyl side, 3 side chain; linkers in the order of their positions; H or OH if unused. Positions of bridges follow the written chain, without caps; N, C: chain ends. Non-standard residues stand in square brackets, D forms with d. Residues, ends and D or L forms follow the SMILES beside them. X1 = O=C([C@H](CCCCNCC=[*:3])N[*:1])[*:2]
ENDPOINT NAME: Activity

MOLECULE | ENDPOINT NAME | VALUE REPORTED
CC(C)[C@H](N)C(=O)N[C@H]1CCCCNCc2ccccc2CNCCCC[C@@H](C(=O)N[C@@H](Cc2ccccc2)C(=O)N[C@@H](Cc2ccccc2)C(=O)N[C@@H](CCCNC(=N)N)C(=O)N[C@@H](CCCCN)C(=O)N[C@@H](Cc2ccccc2)C(=O)N[C@@H](CCCCN)C(=O)N[C@@H](CCCCN)C(=O)N[C@@H](Cc2ccccc2)C(=O)N[C@H](C(N)=O)C(C)C)NC(=O)[C@H](CCCCN)NC(=O)[C@H](Cc2ccccc2)NC(=O)[C@H](CCCNC(=N)N)NC1=O | Activity | Toxic
CC(C)[C@H](N)C(=O)N[C@H]1CCCCNC/C=C/CNCCCC[C@@H](C(=O)N[C@@H](Cc2ccccc2)C(=O)N[C@@H](Cc2ccccc2)C(=O)N[C@@H](CCCNC(=N)N)C(=O)N[C@@H](CCCCN)C(=O)N[C@@H](Cc2ccccc2)C(=O)N[C@@H](CCCCN)C(=O)N[C@@H](CCCCN)C(=O)N[C@@H](Cc2ccccc2)C(=O)N[C@H](C(N)=O)C(C)C)NC(=O)[C@H](CCCCN)NC(=O)[C@H](Cc2ccccc2)NC(=O)[C@H](CCCNC(=N)N)NC1=O (H-V[X1]RFK[X1]FFRKFKKFV-NH2; staple (E) 2-6) | Activity | Toxic
CC(C)[C@H](N)C(=O)N[C@@H](CCCCN)C(=O)N[C@@H](CCCNC(=N)N)C(=O)N[C@@H](Cc1ccccc1)C(=O)N[C@@H](CCCCN)C(=O)N[C@@H](CCCCN)C(=O)N[C@@H](Cc1ccccc1)C(=O)N[C@@H](Cc1ccccc1)C(=O)N[C@@H](CCCNC(=N)N)C(=O)N[C@@H](CCCCN)C(=O)N[C@@H](Cc1ccccc1)C(=O)N[C@@H](CCCCN)C(=O)N[C@@H](CCCCN)C(=O)N[C@@H](Cc1ccccc1)C(=O)N[C@H](C(N)=O)C(C)C (H-VKRFKKFFRKFKKFV-NH2) | Activity | Toxic

====

- Test system: Pseudomonas aeruginosa
- PROTOCOL DETAILS: Antibacterial activity against Pseudomonas aeruginosa BNCC 125486 assessed as inhibition of bacterial growth incubated for 16 hrs by broth microdilution method
- Assay type: functional
Starred links: 1 amine or outer side, 2 acyl side, 3 side chain; linkers in the order of their positions; H or OH if unused. Positions of bridges follow the written chain, without caps; N, C: chain ends. Non-standard residues stand in square brackets, D forms with d. Residues, ends and D or L forms follow the SMILES beside them. X1 = O=C([C@H](CCCCNCC=[*:3])N[*:1])[*:2]
ENDPOINT NAME: MIC (µg/mL)

COMPOUND | ENDPOINT NAME | READOUT RELATION | VALUE REPORTED
CC(C)[C@H](N)C(=O)N[C@H]1CCCCNCC#CCNCCCC[C@@H](C(=O)N[C@@H](Cc2ccccc2)C(=O)N[C@@H](Cc2ccccc2)C(=O)N[C@@H](CCCNC(=N)N)C(=O)N[C@@H](CCCCN)C(=O)N[C@@H](Cc2ccccc2)C(=O)N[C@@H](CCCCN)C(=O)N[C@@H](CCCCN)C(=O)N[C@@H](Cc2ccccc2)C(=O)N[C@H](C(N)=O)C(C)C)NC(=O)[C@H](CCCCN)NC(=O)[C@H](Cc2ccccc2)NC(=O)[C@H](CCCNC(=N)N)NC1=O | MIC | = | 16
CC(C)[C@H](N)C(=O)N[C@@H](CCCCN)C(=O)N[C@@H](CCCNC(=N)N)C(=O)N[C@@H](Cc1ccccc1)C(=O)N[C@@H](CCCCN)C(=O)N[C@H]1CCCCNCc2ccccc2CNCCCC[C@@H](C(=O)N[C@@H](Cc2ccccc2)C(=O)N[C@@H](CCCCN)C(=O)N[C@@H](CCCCN)C(=O)N[C@@H](Cc2ccccc2)C(=O)N[C@H](C(N)=O)C(C)C)NC(=O)[C@H](CCCNC(=N)N)NC(=O)[C@H](Cc2ccccc2)NC(=O)[C@H](Cc2ccccc2)NC1=O | MIC | = | 8
CC[C@H](C)[C@H](NC(=O)[C@H](CCCCN)NC(=O)[C@H](CC(N)=O)NC(=O)[C@H](CC(C)C)NC(=O)[C@@H](NC(=O)[C@H](CCCCN)NC(=O)[C@@H]1CCCN1)[C@@H](C)CC)C(=O)N[C@@H](CC(C)C)C(=O)NCC(=O)N[C@@H](CCCCN)C(=O)N[C@H](C(=O)N[C@@H](CC(C)C)C(=O)N[C@@H](CCCNC(=N)N)C(=O)N[C@@H](CC(C)C)C(=O)N[C@@H](C)C(=O)N[C@@H](C)C(=O)N[C@@H](C)C(=O)N[C@@H](Cc1ccccc1)C(=O)N[C@@H](CCCCN)C(N)=O)[C@@H](C)CC (H-PKILNKILGKILRLAAAFK-NH2) | MIC | = | 4
CCN1CCN(C(=O)N[C@@H](C(=O)N[C@@H]2C(=O)N3C(C(=O)[O-])=C(CSc4nnnn4C)CS[C@H]23)c2ccc(O)cc2)C(=O)C1=O.[Na+] [CEFOPERAZONE SODIUM] | MIC | = | 4
CC(C)[C@H](N)C(=O)N[C@@H](CCCCN)C(=O)N[C@@H](CCCNC(=N)N)C(=O)N[C@@H](Cc1ccccc1)C(=O)N[C@@H](CCCCN)C(=O)N[C@H]1CCCCNC/C=C/CNCCCC[C@@H](C(=O)N[C@@H](Cc2ccccc2)C(=O)N[C@@H](CCCCN)C(=O)N[C@@H](CCCCN)C(=O)N[C@@H](Cc2ccccc2)C(=O)N[C@H](C(N)=O)C(C)C)NC(=O)[C@H](CCCNC(=N)N)NC(=O)[C@H](Cc2ccccc2)NC(=O)[C@H](Cc2ccccc2)NC1=O (H-VKRFK[X1]FFR[X1]FKKFV-NH2; staple (E) 6-10) | MIC | = | 16
CN[C@H](CC(C)C)C(=O)N[C@H]1C(=O)N[C@@H](CC(N)=O)C(=O)N[C@H]2C(=O)N[C@H]3C(=O)N[C@H](C(=O)N[C@H](C(=O)O)c4cc(O)cc(O)c4-c4cc3ccc4O)[C@H](O)c3ccc(c(Cl)c3)Oc3cc2cc(c3O[C@@H]2O[C@H](CO)[C@@H](O)[C@H](O)[C@H]2O[C@H]2C[C@](C)(N)[C@H](O)[C@H](C)O2)Oc2ccc(cc2Cl)[C@H]1O | MIC | > | 128
CC(C)C[C@H](NC(=O)[C@H](C)NC(=O)[C@@H]1CCCCNC/C=C/CNCCCC[C@H](NC(=O)[C@H](CC(C)C)NC(=O)[C@H](CC(C)C)NC(=O)[C@H](CC(=O)O)NC(=O)[C@H](CCCCN)NC(=O)[C@H](Cc2ccccc2)NC(=O)CN)C(=O)NCC(=O)N[C@@H](C)C(=O)N[C@@H](C)C(=O)N1)C(=O)N[C@H](C(=O)N[C@@H](CCCCN)C(=O)N[C@H](C(=O)N[C@H](C(=O)N[C@@H](CC(C)C)C(=O)N[C@@H](Cc1ccccc1)C(N)=O)C(C)C)[C@@H](C)O)C(C)C (H-GFKDLL[X1]GAA[X1]ALVKTVLF-NH2; staple (E) 7-11) | MIC | = | 32
CC(C)C[C@H](NC(=O)[C@H](C)NC(=O)[C@H](CCCCN)NC(=O)[C@H](C)NC(=O)[C@H](C)NC(=O)CNC(=O)[C@H](CCCCN)NC(=O)[C@H](CC(C)C)NC(=O)[C@H](CC(C)C)NC(=O)[C@H](CC(=O)O)NC(=O)[C@H](CCCCN)NC(=O)[C@H](Cc1ccccc1)NC(=O)CN)C(=O)N[C@H](C(=O)N[C@@H](CCCCN)C(=O)N[C@H](C(=O)N[C@H](C(=O)N[C@@H](CC(C)C)C(=O)N[C@@H](Cc1ccccc1)C(N)=O)C(C)C)[C@@H](C)O)C(C)C [Ascaphin-8] (H-GFKDLLKGAAKALVKTVLF-NH2) | MIC | = | 16
CC[C@H](C)[C@H](NC(=O)[C@@H]1CCCCNC/C=C/CNCCCC[C@H](NC(=O)[C@H](CC(C)C)NC(=O)[C@@H](NC(=O)[C@H](CO)NC(=O)CNC(=O)[C@H](Cc2ccccc2)NC(=O)[C@@H](N)Cc2ccccc2)C(C)C)C(=O)N[C@@H](CC(C)C)C(=O)N[C@@H]([C@@H](C)CC)C(=O)N2CCC[C@H]2C(=O)N1)C(=O)N[C@@H](CC(C)C)C(N)=O (H-FFGSVL[X1]LIP[X1]IL-NH2; staple (E) 7-11) | MIC | > | 128
